Target Entity: GTPase HRas (Homo sapiens) (UniProt P01112)
Sequence (P01112 whole entry, looked up): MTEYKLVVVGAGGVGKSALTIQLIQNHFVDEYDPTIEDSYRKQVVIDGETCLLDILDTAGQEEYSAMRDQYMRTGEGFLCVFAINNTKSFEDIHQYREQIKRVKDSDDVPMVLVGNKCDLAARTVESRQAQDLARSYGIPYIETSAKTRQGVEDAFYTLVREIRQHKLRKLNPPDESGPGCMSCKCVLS
Measurement Protocol: HRas wt fluorescent GTP binding changes, either direction – biochemical, wildtype, bead-based flow cytometry, multiplex, primary screen (AID 759);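 note: 0% = unlabeled GTP competition control and 100% = no-compound control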
Test Settings: GST-Ras wt beads, Bodipy-FL-GTP binding, at 10 µM, actives lie on both sides
Among all 190,000 compounds or so, about 270 (0.14%) were called active. Another 2% or so got no clear call; they are omitted. For the sample, actives were picked, then their nearest neighbours and some compounds at random.
Provide the recorded GTP binding activity for the entries that follow.
Give bare numbers, in %.

{"columns": ["Mol", "Unit Info", "Experimental Result"],
 "data": [
  ["O=C(Nc1ccc(N2CCN(C(=O)C3CC3)CC2)cc1)c1cccs1", "%", 95]
]}

Below are 2 compounds. Give each one its GTP binding activity.
1. O=C(Nc1ccccc1C(=O)N1CCOCC1)c1ccc(CSc2ccccc2)cc1
2. NC(=O)COc1ccc(C23CC4CC(CC(C4)C2)C3)cc1

[100, 95]
